Assign TGI to each entry below.
- Test system: UACC-62 melanoma
- measurement.protocol: NCI tumour cell line growth inhibition, 48 h

get_value(item= NC(=O)Cc1ncn(-c2ccccc2)n1 , readout=TGI) returns > 100 µM

The recorded TGI for CCOc1ccc(C2=C(Cl)c3cc(OC)c(OC)cc3C2Cl)cc1 (stereo unspecified) is > 100 µM

get_value(item= O=C1ON(Cc2ccccc2)C(c2ccccc2)N1c1ccccc1 (stereo unspecified) , readout=TGI) returns > 100 µM

Per the records, this compound ( O=C(O)CNC(=O)c1ccccc1O ) has TGI equal to > 100 µM

Value of measured TGI for the entry COC(=O)c1ccccc1/C=C1\Cc2cc3c(cc2C1=O)CCC3 : > 100 µM

response.value for C/C(O)=C(/C=N\C(=S)Nc1ccc(Cl)c(Cl)c1)C(=O)Nc1ccccc1C (field: TGI) = 49.8 µM

The compound CCOC(=O)C1(Cc2ccccc2)Cc2cc3c(cc2C1=O)CCC3 (stereo unspecified) showed TGI equal to > 100 µM

So for COc1cc(C2c3cc4c(cc3OC3(O)COC(=O)C23)OCO4)cc(OC)c1OC (stereo unspecified) , the logged TGI turned out to be > 100 µM

Noted for Cc1cc(=O)oc2c(CNC(C)C(=O)O)c(O)ccc12 (stereo unspecified) : its TGI reads > 100 µM

TGI recorded for this compound, C=C1C(=O)OC2C[C@H](C)C3CC(=O)C(C)=C3CC12 (stereo partly specified) , is 25.9 µM

Quick note, TGI for COCC[N+](CCNC(=O)c1cccc2c(N)c3cccc(C)c3nc12)(CCOC)Cc1ccc([N+](=O)[O-])cc1 landed at 42.5 µM

compound CCc1ccc(CCC(=O)O)nc1 , TGI observed: > 100 µM

The reported value for O=C(N/N=C/c1coc2ccc(Cl)cc2c1=O)c1ccncc1 in terms of TGI is > 100 µM

So for COC(=O)CCC(=O)CC(=O)C(=O)Nc1ccc(F)cc1 , the logged TGI turned out to be > 100 µM

# TGI (compound: CC(=O)Nc1ccc(C2=N/C(=C\c3ccc(Cl)c(Cl)c3)C(=O)O2)cc1 ) is > 100 µM

// TGI value for CC(=O)Oc1ccc2ccc(=O)oc2c1OC(C)=O : > 100 µM

---

- System: SK-MEL-28 melanoma
- measurement.protocol: NCI tumour cell line growth inhibition, 48 h; in the data active = GI50 below about 0.43 µM; inactive = the rest
One label from this list, please: active, inactive

input: Which result was noted for this molecule in the test: CCc1ccc(CCC(=O)Nc2ncc(Cc3cc(Cl)ccc3Cl)s2)o1
output: inactive

input: Write down the call the test reported for this molecule. Item: CC1(C)Cc2cccc(OCC(O)CN3CCN(c4ccc(F)cc4)CC3)c2O1 (stereo unspecified)
output: inactive

input: # fetch the recorded call for COc1ccc2nc3cccc([N+](=O)[O-])c3c(NCCN(CCO)CCO)c2c1 here
output: active

input: Query: recorded result category for O=S(=O)(O)c1ccc(Cl)cc1.[Cd] in this test
output: inactive

input: Returns: the outcome recorded for CCCCCCCCCCCC1=NC(C)(C)CN1CCO in this assay.
output: inactive

input: Called result for COc1ccc(C(=O)C(c2ccc(OC)cc2)C2C(=O)Oc3ccccc32)cc1 (stereo unspecified)
output: inactive

---

- Test system: HCC-2998 colon
- measurement.protocol: NCI tumour cell line growth inhibition, 48 h; in the data active = GI50 below about 0.43 µM; inactive = the rest
Pick one: active, inactive

input: Tell me the recorded outcome of this test for COc1ccc(S(=O)(=O)N2CCN(C(=O)OCc3ccccc3)CC2C(=O)NO)cc1 (centres undefined) .
output: inactive

input: What call does the record list for Nc1ncnc2c1c(-c1cccc(OCc3ccccc3)c1)cn2C1CC(CN2CCCC2)C1 (centres undefined) ?
output: inactive

input: Per the assay record, what outcome was assigned to Nc1ccccc1/C=N\Nc1ccccc1 ?
output: inactive

input: Which outcome was entered for the compound CC1(C)CC[C@]2(C(=O)n3ccnc3)CC[C@]3(C)[C@H](C(=O)C=C4[C@@]5(C)C=C(C#N)C(=O)C(C)(C)[C@@H]5CC[C@]43C)[C@@H]2C1 in this test?
output: active

input: // return assay outcome for O=C1Nc2cc(Cl)ccc2Oc2cc(Oc3ccccc3)ccc21
output: inactive

input: Could you please tell me the result logged for Cn1cc(C2=C(c3c4n(c5ccccc35)CC(CN)C4)C(=O)NC2=O)c2ccccc21 (centres undefined) in this assay?
output: inactive

input: Returns: the outcome recorded for O=C(/C=C/C=C/c1ccccc1)c1ccc(Nc2nc(Nc3ccccc3)nc(Nc3ccccc3)n2)cc1 in this assay.
output: inactive

input: Query: recorded result category for COc1cc(C(=O)NC2CCN(C)CC2)ccc1Nc1ncc2c(n1)N(C1CCCC1)CC(F)(F)C(=O)N2C in this test
output: active

input: Dear all, I need the recorded test outcome for O=S(=O)(O)c1ccc(Cl)cc1.[Cd] , thank you.
output: inactive
